Biological target: T1, human α4β7 integrin on cells (human, UniProt P13612 34-1032; P26010 20-798)
T1 construct: whole, on cells; also called α4β7 cell (Hu); RPMI8866 cells
Assay: RPMI8866 cell adhesion to MAdCAM-1
Bridge positions count the residues as written; N and C are the ends. Square brackets hold non-standard residues; d marks the D form. * marks the point of attachment. Phe(3,4-Cl2) = N[C@@H](Cc1ccc(Cl)c(Cl)c1)C(=O)O; Phe(4-COOH) = N[C@@H](Cc1ccc(C(=O)O)cc1)C(=O)O; Phe(4-tBu) = CC(C)(C)c1ccc(C[C@H](N)C(=O)O)cc1; NMeR = CN[C@@H](CCCNC(=N)N)C(=O)O; β3hE = N[C@@H](CCC(=O)O)CC(=O)O; Pen = CC(C)(S)[C@H](N)C(=O)O; Isovaleryl = CC(C)CC(=O)*
endpoint-name: IC50

Data request: Entry Ac-[Pen][NMeR]SDIL[Pen][Phe(4-tBu)][β3hE][dK]-NH2 (disulfide 1-7; also: homodimer via IDA linker carrying Alexa-647) [SEQ ID NO: 188] : reported IC50 = ?
Data returned: ≤ 10 nM

Data request: Ok, now Ac-[Pen][NMeR]SDTL[Pen][Phe(3,4-Cl2)]E[dK]-NH2 (disulfide 1-7; not fully specified (residue 10); printed as (Ac Pen N-Me-R S D T L Pen F(3,4-diCl) E k NH2)2 DIG, disulfide Pen-Pen; also: dimer, two subunits joined by DIG linker) [SEQ ID NO: 43]
Data returned: > 10 nM

Data request: // same read-out, input: Isovaleryl-[Pen][NMeR]SDTL[Pen][Phe(4-tBu)][β3hE][dK]-NH2 (disulfide 1-7) [SEQ ID NO: 177]
Data returned: > 50 nM

Data request: Follow-up entry: Ac-[Pen][NMeR]SDTL[Pen][dW]E[dK]-NH2 (disulfide 1-7; not fully specified (residue 10); printed as (Ac Pen N-Me-R S D T L Pen w E k NH2)2 DIG, disulfide Pen-Pen; also: dimer, two subunits joined by DIG linker) [SEQ ID NO: 28]
Data returned: > 50 nM

Data request: Proceed to Ac-[Pen][NMeR]SDTL[Pen]W[Phe(4-COOH)][dK]-NH2 (disulfide 1-7; not fully specified (residue 10); printed as (Ac Pen N-Me-R S D T L Pen W F(4-COOH) k NH2)2 DIG, disulfide Pen-Pen; also: homodimer: two subunits joined by DIG linker) [SEQ ID NO: 105]
Data returned: > 50 nM

Data request: What do you get for Ac-[Pen][NMeR]SDTL[Pen]WN[dK]-NH2 (disulfide 1-7; not fully specified (residue 10); printed as (Ac Pen N-Me-R S D T L Pen W N k NH2)2 DIG, disulfide Pen-Pen; also: homodimer: two subunits linked by DIG via D-Lys10 side chain) [SEQ ID NO: 83] ?
Data returned: > 50 nM
